Let's look at some molecules and their measured inhibition at 10 µg/mL.
test system: PBMC; assay: Immunosuppressive activity in human PBMC assessed as inhibition of LPS-stimulated TNFalpha production at 10 ug/mL after 18 to 24 hrs by ELISA; assay type: functional

molecule	unit.info	inhibition at 10 µg/mL
CC(=O)OC[C@]12[C@H](OC(C)=O)[C@H](OC(C)=O)[C@@H]3[C@@H](OC(C)=O)[C@@]14O[C@@]3(C)COC(=O)c1cccnc1C(C)C(C)C(=O)O[C@@H]([C@H](OC(C)=O)[C@@H]2OC(=O)c1ccccc1)[C@]4(C)O (stereo partly drawn)	%	-9
CC(=O)OC[C@]12[C@H](OC(C)=O)[C@H](OC(C)=O)[C@@H]3[C@@H](OC(C)=O)[C@@]14O[C@@]3(C)COC(=O)c1cnccc1C(C)C(C)(O)C(=O)O[C@@H]([C@H](OC(=O)c1ccccc1)[C@@H]2OC(C)=O)[C@]4(C)O (stereo partly drawn)	%	-28
CC(=O)OC[C@]12[C@H](OC(C)=O)[C@H](OC(C)=O)[C@@H]3[C@@H](OC(C)=O)[C@@]14O[C@@]3(C)COC(=O)c1cccnc1CC[C@H](C)C(=O)O[C@@H]([C@H](OC(C)=O)[C@@H]2OC(C)=O)[C@]4(C)O	%	20
CC(=O)OC[C@]12[C@H](OC(C)=O)[C@H](OC(C)=O)[C@@H]3[C@@H](OC(=O)c4ccccc4)[C@@]14O[C@@]3(C)COC(=O)c1cccnc1C(C)C(C)C(=O)O[C@@H]([C@H](OC(C)=O)[C@@H]2OC(C)=O)[C@]4(C)O (stereo partly drawn)	%	37
CC(=O)OC[C@]12[C@H](OC(C)=O)[C@H](OC(C)=O)[C@@H]3[C@@H](OC(C)=O)[C@@]14O[C@@]3(C)COC(=O)c1cccnc1CC[C@@](C)(OC(=O)c1ccccc1)C(=O)O[C@@H]([C@H](OC(C)=O)[C@@H]2OC(C)=O)[C@]4(C)O	%	0
COC(=O)C[C@@H]1C(=O)CCC(C)C(=O)O[C@@H]2[C@@H]3[C@@H](OC(C)=O)[C@@]45O[C@@]3(C)COC(=O)c3cccnc3C(C)C(C)C(=O)O[C@@H]([C@H](OC(C)=O)[C@H](OC(C)=O)[C@@]4(COC1=O)[C@@H]2OC(C)=O)[C@]5(C)O (stereo partly drawn)	%	62
CC(=O)OC[C@]12[C@H](OC(C)=O)[C@H](OC(C)=O)[C@@H]3[C@@H](OC(C)=O)[C@@]14O[C@@]3(C)COC(=O)c1cccnc1CC[C@H](C)C(=O)O[C@@H]([C@H](OC(=O)c1ccccc1)[C@@H]2OC(C)=O)[C@]4(C)O	%	79
CC(=O)OC[C@]12[C@H](OC(C)=O)C(=O)[C@@H]3[C@@H](OC(C)=O)[C@@]14O[C@@]3(C)COC(=O)c1cnccc1CCC(C)(O)C(=O)O[C@@H]([C@H](OC(C)=O)[C@@H]2OC(C)=O)[C@]4(C)O (stereo partly drawn)	%	10
